Reported TGI values follow for various compounds
# Tested on: MOLT-4 leukemia
# protocol_text: NCI tumour cell line growth inhibition, 48 h

Take a look at these entries with their results.
>  <compound>
N=C(N)c1ccc(-c2ccc(-c3cccs3)o2)cc1

>  <target_of_assay>
MOLT-4 leukemia

>  <measurement_kind>
TGI

>  <result>
4.89 µM

$$$$
>  <compound>
CNCCC/C=C1\c2cc3c(cc2-c2c1c1cc(OC)c(OC)cc1c(=O)n2C)OCO3

>  <target_of_assay>
MOLT-4 leukemia

>  <measurement_kind>
TGI

>  <result>
0.405 µM

$$$$
>  <compound>
N#CC(C#N)=C1/C(=C/C=C/C=C/C=C/c2ccc(N3CCCCC3)s2)S(=O)(=O)c2ccccc21

>  <target_of_assay>
MOLT-4 leukemia

>  <measurement_kind>
TGI

>  <result>
63 µM

$$$$
>  <compound>
CCCCc1ccc(N2C(=O)c3cc([N+](=O)[O-])cnc3S2(=O)=O)cc1

>  <target_of_assay>
MOLT-4 leukemia

>  <measurement_kind>
TGI

>  <result>
> 100 µM

$$$$
>  <compound>
c1ccc(-c2nc([P+](c3ccccc3)(c3ccccc3)c3ccccc3)c(N3CCOCC3)o2)cc1

>  <target_of_assay>
MOLT-4 leukemia

>  <measurement_kind>
TGI

>  <result>
14.8 µM

$$$$

Field request: TGI | item: Clc1ccc(-c2nc(-c3ccccc3)cn3ccnc23)cc1
> 100 µM

Field request: TGI | item: COc1ccc(C=C2C(=O)NC(=S)NC2=O)c2ccccc12
> 100 µM

Field request: TGI | item: O=C1CCC[C@]2(CCCC(=O)N2)C1
> 100 µM

Field request: TGI | item: COc1c(O)ccc(C2=Cc3ccc(O)cc3OC2)c1OC
37 µM

Field request: TGI | item: COc1cc(/C=C\c2cc(/C=C\c3ccc(O)c(OC)c3)n(C(=O)COc3ccccc3)n2)ccc1O
3.26 µM

Field request: TGI | item: O=c1oc2ccccc2c(O)c1/C=N\c1nc(-c2ccc(O)c(O)c2)cs1
3.34 µM

Field request: TGI | item: NCC(O)CSP(=O)(O)O (stereo not drawn)
> 100 µM

Field request: TGI | item: CN1CCN(Cc2ccc(NC(=O)c3cncc(C#Cc4cnc5ccc(Cl)nn45)c3)cc2C(F)(F)F)CC1
3.89 µM

====

# System: HCT-15 colon
# protocol_text: NCI tumour cell line growth inhibition, 48 h
measurement_kind: TGI

>  <compound>
CC(=O)OCC12C(OC(C)=O)C(=O)C3C(OC(C)=O)C14OC3(C)COC(=O)c1cccnc1C(C)C(C)C(=O)OC(C(OC(C)=O)C2OC(C)=O)C4(C)O (centres undefined)

>  <target_of_assay>
HCT-15 colon

>  <TGI>
> 100 µM

$$$$
>  <compound>
Nc1cc2ccccc2c(O)c1O

>  <target_of_assay>
HCT-15 colon

>  <TGI>
4.08 µM

$$$$

Field request: TGI | item: N#Cc1c(N)c2c(c(-c3ccccc3)c1-c1ccccc1)C(=O)N(NC(=S)Nc1ccccc1)C2=O
> 100 µM

Field request: TGI | item: CS(=O)(=O)c1ccc(NNc2cc(=O)[nH]c(=O)[nH]2)cc1
> 100 µM

Field request: TGI | item: C=C(C)[C@@H]1CC[C@]2(C)[C@H](CC[C@@H]3[C@@H]([C@@](C)(O)CCC=C(C)C)CC[C@]32C)[C@@]1(C)CCC(=O)N1CCN(C)CC1
18.1 µM

Field request: TGI | item: N#C/C(=C/N1C(=O)/C(=C/c2ccc([N+](=O)[O-])cc2)SC1=S)c1nc2ccccc2s1
> 100 µM

Field request: TGI | item: Oc1ccc(Cl)cc1-c1cc(-c2ccc(Cl)cc2)n[nH]1
6.31 µM

Field request: TGI | item: CC(C)c1nc(Cl)nc(Cl)c1Cl
15.7 µM

Field request: TGI | item: CCCCCCCCCCCCCCCCCCNc1nc(=O)n(C2CC(O)C(COP(=O)(O)OCC(COP(=O)(O)OC3C(CO)OC(n4ccc(N)nc4=O)C3O)OCCCCCCCCCCCCCCCCCC)O2)cc1F (centres undefined)
> 100 µM

====

Reported TGI values follow for various compounds
# System: TK-10 renal
# protocol_text: NCI tumour cell line growth inhibition, 48 h

>  <compound>
O=C(Nc1ccc(-n2ccc3c(NC(=O)c4ccccc4)ncnc32)cc1)c1ccc(Cl)c(C(F)(F)F)c1

>  <target_of_assay>
TK-10 renal

>  <measurement_kind>
TGI

>  <result>
12.9 µM

$$$$
>  <compound>
CN1C(=O)C23CC4(C56CC78SSC(CO)(C(=O)N7C5Nc5ccccc56)N(C)C8=O)c5ccccc5NC4N2C(=O)C1(CO)SS3 (centres undefined)

>  <target_of_assay>
TK-10 renal

>  <measurement_kind>
TGI

>  <result>
0.359 µM

$$$$
>  <compound>
CC(C)CC(=O)[O-].N.N.N.N.N.[Co+3].[O-][Cl+3]([O-])([O-])[O-]

>  <target_of_assay>
TK-10 renal

>  <measurement_kind>
TGI

>  <result>
> 100 µM

$$$$

--- query ---
Field request: TGI | item: CC/C=C/c1cc2c(c3[nH]ccc13)[C@@H](C)CC2C (some centres undefined) (tested in a mixture with another compound)
36.9 µM

====

# Test system: U251 CNS
# protocol_text: NCI tumour cell line growth inhibition, 48 h
measurement_kind: TGI

Take a look at these entries with their results.
>  <molecule>
Cc1nc2c(nc1C)C(=O)C1=C(C2=O)C2C=CC1CC2

>  <target_of_assay>
U251 CNS

>  <measurement_kind>
TGI

>  <result>
10.1 µM

$$$$
>  <molecule>
CN(C)c1ccc(N=Nc2ccc(Br)cn2)c(O)c1

>  <target_of_assay>
U251 CNS

>  <measurement_kind>
TGI

>  <result>
> 100 µM

$$$$
>  <molecule>
Nc1ncnc2c1ncn2C1OC(CO)C2OC21 (configuration not stated)

>  <target_of_assay>
U251 CNS

>  <measurement_kind>
TGI

>  <result>
> 100 µM

$$$$
>  <molecule>
Brc1cccc(Nc2ncnc3sc4c(c23)CCC2(C4)OCCO2)c1

>  <target_of_assay>
U251 CNS

>  <measurement_kind>
TGI

>  <result>
> 100 µM

$$$$

Field request: TGI | item: Cc1cc(C)nc(NS(=O)(=O)c2ccc(Nc3c4ccccc4nc4c(C(=O)N5CCN(CCO)CC5)ccc(Cl)c34)cc2)n1
> 100 µM

====

# System: SN12C renal
# protocol_text: NCI tumour cell line growth inhibition, 48 h
Reported TGI values follow for various compounds

>  <compound>
CSc1cc(Cl)c(C)cc1S(=O)(=O)NC(=O)Nc1ccc(Cl)cc1

>  <TGI>
> 100 µM

$$$$
>  <compound>
O=C1c2ccccc2C(=O)c2c1ccc(O)c2O

>  <TGI>
> 100 µM

$$$$
>  <compound>
N#CCCN(CCC#N)c1ccc(/C=C2\N=C(c3cc([N+](=O)[O-])ccc3Cl)N(S(=O)(=O)c3ccccc3)C2=O)cc1

>  <TGI>
> 100 µM

$$$$
>  <compound>
COc1nc2ncc([C@@H](O)[C@H](O)CO)nc2c(=O)n1C

>  <TGI>
> 100 µM

$$$$
>  <compound>
CCCCCCCCCCCCCCCCCCNc1nc(=O)n(C2CC(O)C(COP(=O)(O)OCC(COP(=O)(O)OC3C(CO)OC(n4ccc(N)nc4=O)C3O)OCCCCCCCCCCCCCCCCCC)O2)cc1F (stereo unspecified)

>  <TGI>
> 100 µM

$$$$

Field request: TGI | item: C=C[C@]1(C)C[C@@H](OC(=O)CO)[C@@]2(C)[C@H](C)CC[C@]3(CCC(=O)[C@H]32)[C@@H](C)[C@@H]1O
> 100 µM

Field request: TGI | item: CCN1CCN(Cc2ccc(NC(=O)c3nc4ccc5[nH]ncc5c4c4c3CCCC4)cc2C(F)(F)F)CC1
1.63 µM

Field request: TGI | item: NC(=O)c1cc(Cl)ccc1NC(=O)COc1ccccc1
> 100 µM

Field request: TGI | item: CCC(C)C1=NC(C(=O)N/C=C\c2c[nH]c3cc(Br)c(Br)cc23)(C(C)C)NC1=O (stereo unspecified)
37.5 µM

====

# System: NCI/ADR-RES ovarian
# protocol_text: NCI tumour cell line growth inhibition, 48 h
Answer false (0) if TGI is under 40 µM, and true (1) if it is 40 µM or more.

Some solved entries appear below for comparison.
>  <compound>
c1ccc(-c2cn3nc(N4CCOCC4)sc3n2)cc1

>  <class_label>
true (1)

$$$$
>  <compound>
CCOP(=O)(OCC)/C(C#N)=C/c1nccn1C

>  <class_label>
true (1)

$$$$
>  <compound>
CCOC(=O)NC(C(F)(F)F)(C(F)(F)F)P(=O)(OCC(C)C)OCC(C)C

>  <class_label>
true (1)

$$$$
>  <compound>
NC(Cc1cnc(I)[nH]1)C(=O)O (stereo unspecified)

>  <class_label>
true (1)

$$$$
>  <compound>
Cc1ccc(-c2cc(-c3cc(-c4ccc(C)cc4C)n[nH]3)[nH]n2)c(C)c1

>  <class_label>
true (1)

$$$$

Now consider the entry below.
Evaluate N=C(N)CCNC(=O)C1CCC(N)=N1 (stereo unspecified) : TGI at minimum 40 µM?
true (1)
